Target Or System: T1, human LAP-TGFB1 Fc fusion (human)
T1 construct: also called human LAP-TGFβ1-Fc; human LAP-TGFβ-Fc isoform 1
T1 sequence (chain, as listed by the source limits assumed): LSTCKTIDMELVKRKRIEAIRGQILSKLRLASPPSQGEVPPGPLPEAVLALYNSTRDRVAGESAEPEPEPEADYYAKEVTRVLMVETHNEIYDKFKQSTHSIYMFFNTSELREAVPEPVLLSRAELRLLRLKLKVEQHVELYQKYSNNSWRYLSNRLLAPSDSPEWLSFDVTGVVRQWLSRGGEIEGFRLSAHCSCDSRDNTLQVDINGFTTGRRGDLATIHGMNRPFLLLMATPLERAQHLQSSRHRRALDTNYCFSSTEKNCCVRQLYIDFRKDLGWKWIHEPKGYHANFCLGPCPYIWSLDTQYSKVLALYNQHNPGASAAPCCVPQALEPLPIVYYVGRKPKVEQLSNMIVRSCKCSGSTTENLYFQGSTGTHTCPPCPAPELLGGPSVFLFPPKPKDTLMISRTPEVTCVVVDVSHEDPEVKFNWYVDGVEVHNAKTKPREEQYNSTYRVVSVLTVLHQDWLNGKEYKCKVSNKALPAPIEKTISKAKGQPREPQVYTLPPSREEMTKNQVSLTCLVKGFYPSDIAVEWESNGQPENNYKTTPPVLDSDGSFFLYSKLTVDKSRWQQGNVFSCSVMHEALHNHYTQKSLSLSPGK
Test Protocol: SPR pH 6.0, antigen captured on Fab 54BLH
In this section we review reported kon values for a set of binders.
Write the answer as a number in M⁻¹ s⁻¹, unit excluded.

INSERT INTO measurements (binder, measured_parameter, reported_value) VALUES
  ('18BLM (antibody, human IgG1, kappa, L234A L235A, V domains shown, IgG1 L234A L235A D265S/kappa; also called 81BLH; 54BMD) VH: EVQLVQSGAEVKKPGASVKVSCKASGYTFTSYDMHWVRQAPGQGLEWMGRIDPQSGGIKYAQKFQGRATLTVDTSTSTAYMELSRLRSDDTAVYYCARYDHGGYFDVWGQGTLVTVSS VL: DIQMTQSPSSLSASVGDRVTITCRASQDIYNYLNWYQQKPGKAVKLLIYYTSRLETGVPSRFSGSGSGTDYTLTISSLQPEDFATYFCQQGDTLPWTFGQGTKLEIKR', 'kon', '5.65e+06'),
  ('12BLM (antibody, human IgG1, kappa, L234A L235A, V domains shown, IgG1 L234A L235A D265S/kappa; also called 75BLH; 48BMD) VH: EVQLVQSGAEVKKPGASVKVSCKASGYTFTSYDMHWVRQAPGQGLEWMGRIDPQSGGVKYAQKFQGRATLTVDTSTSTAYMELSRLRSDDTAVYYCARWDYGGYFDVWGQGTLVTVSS VL: DIQMTQSPSSLSASVGDRVTITCRASQDIYNYLNWYQQKPGKAVKLLIYYTSVLETGVPSRFSGSGSGTDYTLTISSLQPEDFATYFCQQGDELPWTFGQGTKLEIKR', 'kon', '6.86e+06'),
  ('64BLH (Fab, V domains shown, also called 16BLM Fab) VH: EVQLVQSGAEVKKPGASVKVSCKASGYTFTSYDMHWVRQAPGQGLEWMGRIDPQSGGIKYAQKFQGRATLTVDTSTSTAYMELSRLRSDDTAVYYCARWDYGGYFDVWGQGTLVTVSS VL: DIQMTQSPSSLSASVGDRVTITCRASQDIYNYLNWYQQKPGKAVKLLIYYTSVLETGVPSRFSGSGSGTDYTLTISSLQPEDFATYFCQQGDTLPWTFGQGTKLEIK', 'kon', '1.07e+07'),
  ('67BLH (Fab, V domains shown, also called 19BLM Fab) VH: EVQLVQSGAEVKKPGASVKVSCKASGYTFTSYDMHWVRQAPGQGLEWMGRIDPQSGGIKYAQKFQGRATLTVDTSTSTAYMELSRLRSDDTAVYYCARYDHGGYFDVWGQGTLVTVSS VL: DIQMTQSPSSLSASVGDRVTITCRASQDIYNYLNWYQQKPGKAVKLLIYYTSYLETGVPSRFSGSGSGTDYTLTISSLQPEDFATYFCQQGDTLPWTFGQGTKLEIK', 'kon', '2.44e+06'),
  ('19BLM (antibody, human IgG1, kappa, L234A L235A, V domains shown, IgG1 L234A L235A D265S/kappa; also called 82BLH; 55BMD) VH: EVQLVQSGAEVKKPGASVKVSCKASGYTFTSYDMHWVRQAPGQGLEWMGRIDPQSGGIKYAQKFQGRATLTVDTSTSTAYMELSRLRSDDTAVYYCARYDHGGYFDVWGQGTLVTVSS VL: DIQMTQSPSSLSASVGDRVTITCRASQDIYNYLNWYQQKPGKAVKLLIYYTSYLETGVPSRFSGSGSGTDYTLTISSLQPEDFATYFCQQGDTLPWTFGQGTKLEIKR', 'kon', '1.07e+07');

Value lookup for kon; key = 63BLH (Fab, V domains shown, also called 15BLM Fab; 015BLM Fab) VH: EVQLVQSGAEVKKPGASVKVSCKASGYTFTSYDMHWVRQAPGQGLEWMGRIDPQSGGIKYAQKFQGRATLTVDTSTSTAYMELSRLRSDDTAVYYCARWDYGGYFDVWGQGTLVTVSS VL: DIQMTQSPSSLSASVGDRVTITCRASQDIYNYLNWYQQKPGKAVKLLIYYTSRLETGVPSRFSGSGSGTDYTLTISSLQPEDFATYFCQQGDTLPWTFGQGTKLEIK 7.51e+06
